- Tested on: EKVX NSCLC
- Method description: NCI tumour cell line growth inhibition, 48 h
Please respond with reported TGI for every item in the list.

Name the reported TGI value associated with the compound CNC(=O)c1cc(Oc2ccc(NC(=O)Nc3ccc(Cl)c(C(F)(F)F)c3)c(F)c2)ccn1
> 44 µM

Field request: TGI | item: Cc1csc2c1-n1cccc1C2=O
> 100 µM

May I ask what TGI has been recorded for Clc1cccc(NN=Nc2ccc(-c3nc4ccccc4s3)cc2)c1 ?
> 100 µM

Entry under review: NC(=O)c1ccccc1[N+](=O)[O-] . Reported TGI?
> 100 µM

State the recorded TGI for this entry: C[C@@H]1C(=O)C[C@H]2C(C)(C)CCC[C@]2(C)[C@@]1(O)CCc1ccoc1
> 100 µM

Given Cc1ccc(-c2nc(N/N=C/c3ccc(O)cc3)c3ccccc3n2)cc1 , state its recorded TGI.
37.4 µM
